Target Or System: androgen receptor (AR) (Homo sapiens, UniProt P10275)
Construct: transfecting C2C12 cells with a plasmid containing full-length AR; expressed in transfected cells; host or cells: mouse myoblastic C2C12 cells (ATCC CRL-1772), transiently transfected with AR-FL in pcDNA 3.1(+)
Sequence (P10275 1-920): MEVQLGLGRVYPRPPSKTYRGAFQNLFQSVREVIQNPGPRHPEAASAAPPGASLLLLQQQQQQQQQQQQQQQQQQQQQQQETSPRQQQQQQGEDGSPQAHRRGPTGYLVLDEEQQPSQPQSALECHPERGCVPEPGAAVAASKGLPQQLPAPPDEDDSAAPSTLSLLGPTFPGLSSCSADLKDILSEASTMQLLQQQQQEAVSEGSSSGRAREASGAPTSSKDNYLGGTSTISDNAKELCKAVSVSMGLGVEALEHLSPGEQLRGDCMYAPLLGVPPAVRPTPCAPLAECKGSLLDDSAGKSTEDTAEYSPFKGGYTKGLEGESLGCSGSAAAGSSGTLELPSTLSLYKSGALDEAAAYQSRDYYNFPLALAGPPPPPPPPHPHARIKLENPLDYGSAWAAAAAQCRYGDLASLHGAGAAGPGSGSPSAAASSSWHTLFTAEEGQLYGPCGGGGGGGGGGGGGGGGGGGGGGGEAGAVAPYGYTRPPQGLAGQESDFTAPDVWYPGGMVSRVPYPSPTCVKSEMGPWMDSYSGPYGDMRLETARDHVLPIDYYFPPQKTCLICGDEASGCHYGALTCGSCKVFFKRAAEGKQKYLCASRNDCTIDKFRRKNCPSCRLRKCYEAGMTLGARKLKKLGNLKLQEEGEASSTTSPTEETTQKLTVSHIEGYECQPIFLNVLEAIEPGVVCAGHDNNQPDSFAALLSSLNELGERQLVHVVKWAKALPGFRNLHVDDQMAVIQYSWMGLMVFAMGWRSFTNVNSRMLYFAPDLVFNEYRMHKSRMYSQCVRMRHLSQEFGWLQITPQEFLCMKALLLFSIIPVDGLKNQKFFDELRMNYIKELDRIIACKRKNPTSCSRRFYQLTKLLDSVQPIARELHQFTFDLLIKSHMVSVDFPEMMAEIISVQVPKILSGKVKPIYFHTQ
Assay Comment: Test 1: androgen receptor transcriptional activation (2XIDR17-luciferase) assay in transfected C2C12 cells
Assay type: cell-based
Condition Info: C2C12 cells; compound at 5 μM; relative to 1 μM DHT
Quick reference: % Biological activity (C2C12 cell) 5 μM of the listed items.
Measured Quantity: % Biological activity (C2C12 cell) 5 μM (%)

{"Compound": "Cc1noc(C)c1CN1C(=O)N(c2ccc(C#N)c(Cl)c2C)C(=O)C12CCCC2", "Unit String": "%", "Val": 19}
{"Compound": "Cc1c(N2C(=O)N(C)C3(CCC3)C2=O)ccc(C#N)c1Cl", "Unit String": "%", "Val": 70}
{"Compound": "Cc1ncc(CN2C(=O)N(c3ccc(C#N)c(Cl)c3C)C(=O)C23CCCC3)o1", "Unit String": "%", "Val": 66}
{"Compound": "Cc1c(N2C(=O)N(C)C3(CCC(=O)C3)C2=O)ccc(C#N)c1Cl (stereo not drawn)", "Unit String": "%", "Val": 29}
{"Compound": "Cc1c(N2C(=O)N(Cc3ncc(CO)o3)C3(CCCC3)C2=O)ccc(C#N)c1Cl", "Unit String": "%", "Val": 70}
{"Compound": "Cc1c(N2C(=O)N(CC(C)C)C3(CCCC3)C2=O)ccc(C#N)c1Cl", "Unit String": "%", "Val": 74}
{"Compound": "Cc1c(N2C(=O)N(CC3CCOC3)C3(CCCC3)C2=O)ccc(C#N)c1Cl (stereo not drawn)", "Unit String": "%", "Val": 48}
{"Compound": "Cc1c(N2C(=O)N(C)C3(CCCC3CO)C2=O)ccc(C#N)c1Cl (stereo not drawn)", "Unit String": "%", "Val": 75}
{"Compound": "Cc1c(N2C(=O)N(CCCF)C3(CCCC3)C2=O)ccc(C#N)c1Cl", "Unit String": "%", "Val": 52}

* * *

Target Or System: androgen receptor (AR) (Homo sapiens, UniProt P10275)
Construct: transfecting C2C12 cells with a plasmid containing full-length AR; expressed in transfected cells; host or cells: mouse myoblastic C2C12 cells (ATCC CRL-1772), transiently transfected with AR-FL in pcDNA 3.1(+)
Sequence (P10275 1-920): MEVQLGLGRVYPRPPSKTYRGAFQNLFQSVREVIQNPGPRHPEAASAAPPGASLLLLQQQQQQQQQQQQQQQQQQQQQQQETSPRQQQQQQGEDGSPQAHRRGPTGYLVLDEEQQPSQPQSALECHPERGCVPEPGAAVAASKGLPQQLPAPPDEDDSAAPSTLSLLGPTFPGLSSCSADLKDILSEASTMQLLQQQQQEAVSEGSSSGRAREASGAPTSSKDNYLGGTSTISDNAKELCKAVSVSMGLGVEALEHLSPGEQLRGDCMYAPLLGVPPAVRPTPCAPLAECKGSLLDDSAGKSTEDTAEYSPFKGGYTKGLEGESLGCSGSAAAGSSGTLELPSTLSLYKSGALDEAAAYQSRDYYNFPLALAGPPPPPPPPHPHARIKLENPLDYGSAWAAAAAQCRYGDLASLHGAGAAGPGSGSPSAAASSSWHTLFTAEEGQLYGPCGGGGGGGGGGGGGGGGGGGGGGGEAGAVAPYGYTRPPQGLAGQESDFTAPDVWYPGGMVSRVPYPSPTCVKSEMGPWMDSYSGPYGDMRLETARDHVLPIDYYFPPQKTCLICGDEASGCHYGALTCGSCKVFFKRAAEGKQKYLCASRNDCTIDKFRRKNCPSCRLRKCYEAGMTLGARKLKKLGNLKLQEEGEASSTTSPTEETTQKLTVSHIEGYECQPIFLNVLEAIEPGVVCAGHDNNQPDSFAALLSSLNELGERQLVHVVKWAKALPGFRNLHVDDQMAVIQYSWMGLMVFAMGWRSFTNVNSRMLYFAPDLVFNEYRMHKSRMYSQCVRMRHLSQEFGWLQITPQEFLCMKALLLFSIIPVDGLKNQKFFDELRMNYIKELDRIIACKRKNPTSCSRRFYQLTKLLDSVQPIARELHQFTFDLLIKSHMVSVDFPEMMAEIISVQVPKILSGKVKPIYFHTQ
Assay Comment: Test 1: androgen receptor transcriptional activation (2XIDR17-luciferase) assay in transfected C2C12 cells
Format: cell-based
Condition Info: C2C12, C2C12 cells; percentage activity relative to 1 μM DHT; read-out: Biological activity (C2C12 cell) Emax % (converted)
Assign Condition met to entries whose Emax meets or exceeds 80%; assign Condition not met to the rest.

{"Compound": "Cc1c(N2C(=O)N(C)C3(CCC(F)C3)C2=O)ccc(C#N)c1Cl (stereo not shown)", "Target Or System": "androgen receptor (AR) (Homo sapiens, UniProt P10275)", "Assigned Label": "Condition met"}
{"Compound": "Cc1c(N2C(=O)N(Cc3cnco3)C3(CCCC3)C2=O)ccc(C#N)c1Cl", "Target Or System": "androgen receptor (AR) (Homo sapiens, UniProt P10275)", "Assigned Label": "Condition met"}
{"Compound": "COCCN1C(=O)N(c2ccc(C#N)c(Cl)c2C)C(=O)C12CCCC2", "Target Or System": "androgen receptor (AR) (Homo sapiens, UniProt P10275)", "Assigned Label": "Condition met"}
{"Compound": "COC1N(c2ccc(C#N)c(Cl)c2C)C(=O)OC12CCCC2O (stereo not shown)", "Target Or System": "androgen receptor (AR) (Homo sapiens, UniProt P10275)", "Assigned Label": "Condition not met"}
{"Compound": "Cc1c(N2C(=O)N(CCOCCF)C3(CCCC3)C2=O)ccc(C#N)c1Cl", "Target Or System": "androgen receptor (AR) (Homo sapiens, UniProt P10275)", "Assigned Label": "Condition met"}
{"Compound": "Cc1cnc(CN2C(=O)N(c3ccc(C#N)c(Cl)c3C)C(=O)C23CCCC3)o1", "Target Or System": "androgen receptor (AR) (Homo sapiens, UniProt P10275)", "Assigned Label": "Condition met"}
{"Compound": "Cc1c(N2C(=O)N(C)C3(CCCC3=O)C2=O)ccc(C#N)c1Cl (racemic)", "Target Or System": "androgen receptor (AR) (Homo sapiens, UniProt P10275)", "Assigned Label": "Condition not met"}
{"Compound": "Cc1c(N2C(=O)N(C)C3(C=CCC3)C2=O)ccc(C#N)c1Cl (stereo not shown)", "Target Or System": "androgen receptor (AR) (Homo sapiens, UniProt P10275)", "Assigned Label": "Condition not met"}
{"Compound": "Cc1c(N2C(=O)N(CCCC#N)C3(CCCC3)C2=O)ccc(C#N)c1Cl", "Target Or System": "androgen receptor (AR) (Homo sapiens, UniProt P10275)", "Assigned Label": "Condition met"}
{"Compound": "Cc1c(N2C(=O)N(CCCCC#N)C3(CCCC3)C2=O)ccc(C#N)c1Cl", "Target Or System": "androgen receptor (AR) (Homo sapiens, UniProt P10275)", "Assigned Label": "Condition met"}
{"Compound": "Cc1c(N2C(=O)N(Cc3ccc(C#N)cc3)C3(CCCC3)C2=O)ccc(C#N)c1Cl", "Target Or System": "androgen receptor (AR) (Homo sapiens, UniProt P10275)", "Assigned Label": "Condition met"}
{"Compound": "Cc1c(N2C(=O)N(C)C3(CCC(F)(F)C3)C2=O)ccc(C#N)c1Cl (stereo not shown)", "Target Or System": "androgen receptor (AR) (Homo sapiens, UniProt P10275)", "Assigned Label": "Condition not met"}
{"Compound": "Cc1c(N2C(=O)N(CCF)C3(CCCC3)C2=O)ccc(C#N)c1Cl", "Target Or System": "androgen receptor (AR) (Homo sapiens, UniProt P10275)", "Assigned Label": "Condition met"}
{"Compound": "Cc1c(N2CC3(CCCC3O)N(C)C2=O)ccc(C#N)c1Cl (stereo not shown)", "Target Or System": "androgen receptor (AR) (Homo sapiens, UniProt P10275)", "Assigned Label": "Condition not met"}
{"Compound": "Cc1c(N2C(=O)N(C)C3(CCC(O)C3)C2=O)ccc(C#N)c1Cl (stereo not shown)", "Target Or System": "androgen receptor (AR) (Homo sapiens, UniProt P10275)", "Assigned Label": "Condition not met"}
{"Compound": "Cc1c(N2C(=O)N(C)C3(CCOC3)C2=O)ccc(C#N)c1Cl (stereo not shown)", "Target Or System": "androgen receptor (AR) (Homo sapiens, UniProt P10275)", "Assigned Label": "Condition not met"}
{"Compound": "Cc1c(N2C(=O)N(CCO)C3(CCCC3)C2=O)ccc(C#N)c1Cl", "Target Or System": "androgen receptor (AR) (Homo sapiens, UniProt P10275)", "Assigned Label": "Condition not met"}
{"Compound": "Cc1c(N2C(=O)N(CCC#N)C3(CCCC3)C2=O)ccc(C#N)c1Cl", "Target Or System": "androgen receptor (AR) (Homo sapiens, UniProt P10275)", "Assigned Label": "Condition met"}
{"Compound": "CCN1C(=O)N(c2ccc(C#N)c(Cl)c2C)C(=O)C12CCCC2", "Target Or System": "androgen receptor (AR) (Homo sapiens, UniProt P10275)", "Assigned Label": "Condition met"}
{"Compound": "Cc1c(N2C(=O)N(C)C3(CCCC3F)C2=O)ccc(C#N)c1Cl (stereo not shown)", "Target Or System": "androgen receptor (AR) (Homo sapiens, UniProt P10275)", "Assigned Label": "Condition not met"}
{"Compound": "Cc1c(N2C(=O)N(CCc3ccncc3)C3(CCCC3)C2=O)ccc(C#N)c1Cl", "Target Or System": "androgen receptor (AR) (Homo sapiens, UniProt P10275)", "Assigned Label": "Condition not met"}
{"Compound": "Cc1c(N2C(=O)N(C)C3(CCCC3C)C2=O)ccc(C#N)c1Cl (stereo not shown)", "Target Or System": "androgen receptor (AR) (Homo sapiens, UniProt P10275)", "Assigned Label": "Condition met"}
{"Compound": "Cc1cc(CN2C(=O)N(c3ccc(C#N)c(Cl)c3C)C(=O)C23CCCC3)no1", "Target Or System": "androgen receptor (AR) (Homo sapiens, UniProt P10275)", "Assigned Label": "Condition met"}
{"Compound": "Cc1c(N2C(=O)N(C)C3(CCCC3)C2=O)ccc(C#N)c1Cl", "Target Or System": "androgen receptor (AR) (Homo sapiens, UniProt P10275)", "Assigned Label": "Condition met"}
{"Compound": "Cc1c(N2C(=N)C3(CCCC3)N(C)C2=O)ccc(C#N)c1Cl", "Target Or System": "androgen receptor (AR) (Homo sapiens, UniProt P10275)", "Assigned Label": "Condition not met"}
{"Compound": "Cc1c(N2C(=O)N(CCCCCC#N)C3(CCCC3)C2=O)ccc(C#N)c1Cl", "Target Or System": "androgen receptor (AR) (Homo sapiens, UniProt P10275)", "Assigned Label": "Condition met"}
{"Compound": "Cc1c(N2C(=O)N(CCOCC#N)C3(CCCC3)C2=O)ccc(C#N)c1Cl", "Target Or System": "androgen receptor (AR) (Homo sapiens, UniProt P10275)", "Assigned Label": "Condition met"}
{"Compound": "Cc1c(N2C(=O)N(Cc3ccccn3)C3(CCCC3)C2=O)ccc(C#N)c1Cl", "Target Or System": "androgen receptor (AR) (Homo sapiens, UniProt P10275)", "Assigned Label": "Condition met"}
